# System: Aspergillus fumigatus
# Test details: Antifungal activity against Aspergillus fumigatus ATCC 204305 after 48 h by CLSI method
# Condition set: ATCC 204305, 48 h
Measured attribute: pIC50
In plain terms, pIC50 is the concentration in mol/L turned into minus its base-10 logarithm.

Compound: CCCCCCCCCCCCC#CCCCCC(=O)O
Measured attribute: pIC50
Reported value: 5.96

Next compound, pIC50 to be filled in.
Exam item: Request: pIC50, test system Aspergillus fumigatus, entry CCCCCCCCCCCC#CCCCCC(=O)O
Marked response: 4.73

###

# System: Candida parapsilosis
# Test details: Antifungal activity against Candida parapsilosis ATCC 22019 after 48 hrs by CLSI method
# Type: functional, organism-based
# Condition set: Lodderomyces parapsilosis, ATCC 22019, 48 h
Measured attribute: MIC (µM)
Answer in µM, number only, no unit symbol.

Worked examples follow.
Molecule: C[C@@H]1[C@H](O)[C@@H](C)/C=C/C=C/C=C/C=C/C=C/C=C/C=C/[C@H](O[C@@H]2O[C@H](C)[C@@H](O)[C@H](N)[C@@H]2O)C[C@@H]2O[C@](O)(C[C@@H](O)C[C@@H](O)[C@H](O)CC[C@@H](O)C[C@@H](O)CC(=O)O[C@H]1C)C[C@H](O)[C@H]2C(=O)O [AMPHOTERICIN B]
Target under test: Candida parapsilosis
MIC, µM: 2
--
Molecule: OC(Cn1cncn1)(Cn1cncn1)c1ccc(F)cc1F [FLUCONAZOLE]
Target under test: Candida parapsilosis
MIC, µM: 10.2
--
Molecule: CCCCCC#CCC#CCC#CCC#CCCCC(=O)O
Target under test: Candida parapsilosis
MIC, µM: 63.3
--
Molecule: CN(C/C=C/C#CC(C)(C)C)Cc1cccc2ccccc12 [TERBINAFINE]
Target under test: Candida parapsilosis
MIC, µM: 42.9
--
Molecule: CC(=O)N1CCN(c2ccc(OCC3COC(Cn4ccnc4)(c4ccc(Cl)cc4Cl)O3)cc2)CC1 (stereo unspecified) [KETOCONAZOLE]
Target under test: Candida parapsilosis
MIC, µM: 0.13

Next molecule, MIC to be filled in.
Exam item: Request: MIC, test system Candida parapsilosis, entry CC[C@H](C)C[C@H](C)CCCCCCCCC(=O)N[C@H]1C[C@@H](O)[C@@H](NCCN)NC(=O)[C@@H]2[C@@H](O)CCN2C(=O)[C@H]([C@H](O)CCN)NC(=O)[C@H]([C@H](O)[C@@H](O)c2ccc(O)cc2)NC(=O)[C@@H]2C[C@@H](O)CN2C(=O)[C@H]([C@@H](C)O)NC1=O [CASPOFUNGIN]
Marked response: 0.5
